Recorded binding affinity ratio (IC50 of standard peptide / IC50 of test peptide) for the following binders
Molecular target: HLA-A*1101 (human)
measurement.type: binding affinity ratio (IC50 of standard peptide / IC50 of test peptide)

1) PVVVGTTDR (modifications not checked) [HCV peptide … (polyprotein position 516)] :: 0.0005
2) IVGGVYLLPR (modifications not checked) [HCV peptide … (polyprotein position 30)] :: 0.0056
3) PTDPRRRSR (modifications not checked) [HCV peptide … (polyprotein position 109)] :: 0.0005
4) SASQLSAPSLK (modifications not checked) [HCV peptide … (polyprotein position 2207)] :: 0.0044
